- Tested on: S. aureus 101
- measurement.notes: MIC determination
- Format: cell-based, Staphylococcus aureus
- measurement.conditions: Staphylococcus aureus, 101, 18 h; read-out: Minimum inhibitory concentrations (MIC)
value.kind: MIC

Some entries whose results are on file:
compound	measured.target	result
Cc1cc(NS(=O)(=O)c2ccc(N)cc2)no1 [Sulfamethoxazole, N1-(5-methyl-3-isoxazolyl)sulfanilamide]	S. aureus 101	> 128 µg/mL
Nc1ccc(S(=O)(=O)Nc2ncccn2)cc1	S. aureus 101	> 128 µg/mL

MIC recorded for this compound, CC1(C)S[C@@H]2[C@H](NC(=O)[C@H](N)c3ccccc3)C(=O)N2[C@H]1C(=O)O , is > 128 µg/mL
